# measurement-description: self-splicing fitness, log relative to wild type (ln ratio); higher = more splicing; Tetrahymena group I intron in knt gene, E. coli kanamycin selection, DiMSum; sequences stand for … in CUCUCU…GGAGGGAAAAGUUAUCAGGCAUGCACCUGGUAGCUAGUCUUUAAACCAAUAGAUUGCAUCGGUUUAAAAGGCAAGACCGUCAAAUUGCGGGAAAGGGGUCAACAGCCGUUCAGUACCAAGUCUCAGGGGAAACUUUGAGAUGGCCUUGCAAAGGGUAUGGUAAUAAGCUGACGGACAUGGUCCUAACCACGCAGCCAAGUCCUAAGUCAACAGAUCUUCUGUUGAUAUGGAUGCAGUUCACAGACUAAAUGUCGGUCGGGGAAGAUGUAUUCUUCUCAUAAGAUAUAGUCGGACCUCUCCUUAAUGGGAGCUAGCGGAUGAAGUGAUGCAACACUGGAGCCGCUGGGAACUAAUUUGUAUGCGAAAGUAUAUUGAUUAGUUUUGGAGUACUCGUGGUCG;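 further: selection with 25 µg/mL kanamycin versus none on LB agar overnight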
# details: 30 °C
Label rule, in plain words: self-splicing fitness (ln) of -2 and up is YES, under -2 is NO.

These solved cases illustrate the format of a correct answer.
| item-sequence | label |
| --- | --- |
| UGCAAGCAAUAUUACGGGCG | YES |
| CUAGAGCAAUAUUACGUCUA | YES |
| AUCAAGCAAUAUUACGAUCC | NO |

Item "AGCCAGCAAUAUUACGCGUU" with self-splicing fitness (ln) of -2 or above?
NO
